Target: T1, full-length beta-Catenin (Uniprot ID P35222) (Homo sapiens (Human), UniProt P35222 2-781)
T1 construct: The assay text says 'full-length'; also called B-Catenin; bCat
T1 sequence: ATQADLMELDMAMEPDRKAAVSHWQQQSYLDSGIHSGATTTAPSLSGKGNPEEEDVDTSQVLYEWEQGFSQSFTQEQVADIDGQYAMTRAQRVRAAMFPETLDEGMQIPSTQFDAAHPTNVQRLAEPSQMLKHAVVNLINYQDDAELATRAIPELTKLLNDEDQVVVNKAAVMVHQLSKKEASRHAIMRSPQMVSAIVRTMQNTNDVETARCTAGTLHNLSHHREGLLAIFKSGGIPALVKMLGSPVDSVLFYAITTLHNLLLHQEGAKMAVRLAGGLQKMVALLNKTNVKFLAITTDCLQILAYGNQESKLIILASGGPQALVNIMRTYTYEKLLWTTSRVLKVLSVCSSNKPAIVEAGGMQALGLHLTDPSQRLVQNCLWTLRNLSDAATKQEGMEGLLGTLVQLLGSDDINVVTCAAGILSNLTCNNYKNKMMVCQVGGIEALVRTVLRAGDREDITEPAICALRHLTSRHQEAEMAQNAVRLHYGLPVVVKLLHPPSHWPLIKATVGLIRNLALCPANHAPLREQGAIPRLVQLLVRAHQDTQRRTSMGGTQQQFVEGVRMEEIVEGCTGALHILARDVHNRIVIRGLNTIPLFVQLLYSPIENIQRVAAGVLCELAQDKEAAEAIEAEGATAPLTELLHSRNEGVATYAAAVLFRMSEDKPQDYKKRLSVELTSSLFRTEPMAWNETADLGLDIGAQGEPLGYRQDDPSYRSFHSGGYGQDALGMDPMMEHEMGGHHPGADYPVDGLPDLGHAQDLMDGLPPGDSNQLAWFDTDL
Test: AlphaScreen competition vs biotin-TCF4(10-53) on full-length beta-catenin
Starred links: 1 amine or outer side, 2 acyl side, 3 side chain; linkers in the order of their positions; H or OH if unused. Positions of bridges follow the written chain, without caps; N, C: chain ends. Non-standard residues stand in square brackets, D forms with d. Primed or numbered codes have the meaning given here. PyrS″ = (S)-1-((allyloxy)carbonyl)-3-aminopyrrolidine-3-carboxylic acid (stapling residue), C=CCOC(=O)N1CC[C@@](N[*:1])(C(=O)[*:2])C1; PyrS = (S)-1-((allyloxy)carbonyl)-3-aminopyrrolidine-3-carboxylic acid, C=CCOC(=O)N1CC[C@@](N[*:1])(C(=O)[*:2])C1; R7″ = (R)-2-amino-2-methylnon-8-enoic acid (stapling residue), C=CCCCCC[C@@](C)(N[*:1])C(=O)[*:2]; R7 = (R)-2-amino-2-methylnon-8-enoic acid, C=CCCCCC[C@@](C)(N[*:1])C(=O)[*:2]; R8 = C=CCCCCCC[C@@](C)(N)C(=O)O; Nle = CCCC[C@H](N)C(=O)O
ASSAY_READOUT: EC50 (µM)
One number for each entry, in µM.

As a guide, the following entries are already answered.
Ac-FDA[R7″]DDAAFV[PyrS″]FWQ-NH2 (staple 4-11, Stapled peptide composition) [I-30] = 8.82
Ac-FDA[R7]DDAAFV[PyrS]FWQ-NH2 (staple 4-11; not fully specified; printed as Ac-Phe-Asp-Ala-R7-Asp-Asp-Ala-Ala-Phe-Val-PyrS-Phe-Trp-Gln-NH2, Stapled peptide composition) [I-31] = 7.22
FDAXDDAAFVXFWQ (not fully specified; Ac-Phe-Asp-Ala-ReN-Asp-Asp-Ala-Ala-Phe-Val-S6-Phe-Trp-Gln-NH2 as printed: N-terminal acetyl, C-terminal amide, ReN at 4 stapled to S6 at 11, Stapled peptide composition) [I-28] = 8.46

// fetch EC50 given entry Ac-FDA[R8]D[Nle]AAFV[PyrS]FWQ-NH2 (staple 4-11; not fully specified; printed as Ac-Phe-Asp-Ala-R8-Asp-nLeu-Ala-Ala-Phe-Val-PyrS-Phe-Trp-Gln-NH2, Stapled peptide composition) [I-14]
9.76
